Test system: Escherichia coli TOP10
assaySummary: shrunken log2 fold change of peptide-encoding DNA abundance (4.5 h post-induction vs induction); higher = less antimicrobial activity (less host growth inhibition)
assayConditions: time post-induction: 4.5 h; library: site-saturation at positions 5, 18, 19, 20
Rule: shrunken log2 fold change under -0.09 gives n, otherwise y.

[
  {
    "querySequence": "RRIRLRPPRLPRPRPRPQHCPRP",
    "testedSystem": "Escherichia coli TOP10",
    "categoryLabel": "y"
  },
  {
    "querySequence": "RRIRQRPPRLPRPRPRPPCEPRP",
    "testedSystem": "Escherichia coli TOP10",
    "categoryLabel": "y"
  },
  {
    "querySequence": "RRIRQRPPRLPRPRPRPAGLPRP",
    "testedSystem": "Escherichia coli TOP10",
    "categoryLabel": "n"
  },
  {
    "querySequence": "RRIRHRPPRLPRPRPRPYFDPRP",
    "testedSystem": "Escherichia coli TOP10",
    "categoryLabel": "n"
  },
  {
    "querySequence": "RRIRKRPPRLPRPRPRPYHGPRP",
    "testedSystem": "Escherichia coli TOP10",
    "categoryLabel": "y"
  }
]

Dear colleague, could you confirm whether RRIRYRPPRLPRPRPRPFESPRP has shrunken log2 fold change at or above -0.09? y

Dear colleague, could you confirm whether RRIRLRPPRLPRPRPRPTVRPRP has shrunken log2 fold change at or above -0.09? n

---

Test system: Escherichia coli TOP10
assaySummary: shrunken log2 fold change of peptide-encoding DNA abundance (4.5 h post-induction vs induction); higher = less antimicrobial activity (less host growth inhibition)
assayConditions: time post-induction: 4.5 h; library: site-saturation at positions 5, 18, 19, 20
Listing of recorded shrunken log2 fold change by entry.
Write no unit; give the number alone.

Check out these entries, answers already filled in.
[
  {
    "querySequence": "RRIRWRPPRLPRPRPRPTKWPRP",
    "valueObserved": -0.126
  },
  {
    "querySequence": "RRIRRRPPRLPRPRPRPIQPPRP",
    "valueObserved": -0.0245
  },
  {
    "querySequence": "RRIRDRPPRLPRPRPRPDATPRP",
    "valueObserved": 0.0857
  },
  {
    "querySequence": "RRIRSRPPRLPRPRPRPNLNPRP",
    "valueObserved": -0.307
  },
  {
    "querySequence": "RRIRLRPPRLPRPRPRPAHHPRP",
    "valueObserved": 0.0653
  },
  {
    "querySequence": "RRIRTRPPRLPRPRPRPFLKPRP",
    "valueObserved": 0.092
  }
]

Shifting focus to the sequence that follows.
Reported shrunken log2 fold change, sequence RRIRPRPPRLPRPRPRPMQKPRP : ____ 0.0491

---

Test system: Escherichia coli TOP10;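 further: peptides expressed intracellularly from a pBAD plasmid library in pooled LB shake-flask culture, induced with 0.3% L-arabinose, DNA abundance read by NGS, three biological replicates, DESeq2 with apeglm shrinkage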
assaySummary: shrunken log2 fold change of peptide-encoding DNA abundance (4.5 h post-induction vs induction); higher = less antimicrobial activity (less host growth inhibition)
assayConditions: time post-induction: 4.5 h; library: site-saturation at positions 5, 18, 19, 20
recordedEndpoint: shrunken log2 fold change
Write no unit; give the number alone.

Check out these entries, answers already filled in.
[
  {
    "querySequence": "RRIRQRPPRLPRPRPRPILWPRP",
    "shrunken log2 fold change": -0.185
  },
  {
    "querySequence": "RRIRHRPPRLPRPRPRPLGPPRP",
    "shrunken log2 fold change": 0.191
  },
  {
    "querySequence": "RRIRRRPPRLPRPRPRPVCAPRP",
    "shrunken log2 fold change": 0.547
  }
]

Reported shrunken log2 fold change, sequence RRIRTRPPRLPRPRPRPALMPRP : ____ 0.165

Reported shrunken log2 fold change, sequence RRIRFRPPRLPRPRPRPDNHPRP : ____ -0.232

Reported shrunken log2 fold change, sequence RRIRLRPPRLPRPRPRPTCHPRP : ____ 0.000681

Reported shrunken log2 fold change, sequence RRIRVRPPRLPRPRPRPGFYPRP : ____ -0.345

Reported shrunken log2 fold change, sequence RRIRLRPPRLPRPRPRPAIMPRP : ____ -0.16
